// reported % of efficacy (protection) for each item listed
test system: Botrytis cinerea; assay: In vivo preventive test on Botrytis cinerea (grey mould); conditions: 500 ppm; gherkin plants sprayed 24 hours before contamination; grading 4-5 days after contamination vs control plants
Value expressed in %; do not type the unit.

Answered cases to consult:
INSERT INTO measurements (compound, reported_value) VALUES
  ('C#Cc1cnc2ccc(C3=NOC(C)(C(=O)NCC4COC(C)(C)O4)C3)cc2c1 (stereo not shown)', 100),
  ('C#Cc1cnc2ccc(C3=NOC(OC)(C(=O)NC(C)(C)c4cc(C)ccn4)C3)cc2c1 (stereo not shown)', 100),
  ('C#Cc1cnc2ccc(C3=NOC(OC)(C(=O)NCc4c(C)cnn4CCC)C3)cc2c1 (stereo not shown)', 100),
  ('C#Cc1cnc2ccc(C3=NOC(C)(C(=O)NCc4cccnc4)C3)cc2c1 (stereo not shown)', 98),
  ('CC1(C(=O)NC2CCC2)CC(c2cc(Cl)c3ncc(Br)cc3c2)=NO1 (stereo not shown)', 100);

Which % of efficacy (protection) is listed for C#Cc1cnc2c(Cl)cc(C3=NOC(C)(C(=O)NCc4cn(CC)nc4C)C3)cc2c1 (stereo not shown) ?
98

Given CC(C)NC(=O)C1(C)CC(c2cc(Cl)c3ncc(Br)cc3c2)=NO1 (stereo not shown) , state its recorded % of efficacy (protection).
100

---

System: Botrytis cinerea
Experiment: In vivo preventive test on Botrytis cinerea (grey mould)
Conditions: 500 ppm; gherkin plants sprayed 24 hours before contamination; grading 4-5 days after contamination vs control plants
Method: Gherkin plants (“Vert petit de Paris” variety), sown in starter cups on a 50/50 peat soil-pozzolana substrate and grown at 24° C., are treated at the Z11 cotyledon stage by spraying with the active ingredient prepared as described above. Plants, used as controls, are treated with the mixture of acetone/tween/DMSO/water not containing the active material. […]
measurement-label: % of efficacy (protection) (%)
Just the number please, in %, no unit attached.

Observed % of efficacy (protection) on Botrytis cinerea for C#Cc1cnc2ccc(C3=NOC(C)(C(=O)NC4CCOCC4C)C3)cc2c1 (centres unmarked) , please.
100

State its % of efficacy (protection) on Botrytis cinerea: C#CC1(C(=O)NC(C)C)CC(c2ccc3ncc(Br)cc3c2)=NO1 (centres unmarked)
99

Request body: readout % of efficacy (protection), system Botrytis cinerea, query Cc1cc(C2=NOC(C)(C(=O)NCC3COC(C)(C)O3)C2)cc2cc(Br)cnc12 (centres unmarked) . Return the value.
100

API: value(readout= % of efficacy (protection), system= Botrytis cinerea, query= CCCn1cc(CNC(=O)C2(OC)CC(c3cc(C)c4ncc(Br)cc4c3)=NO2)c(C)n1 (centres unmarked) )
100

Could you share what % of efficacy (protection) was measured for CCOCCCNC(=O)C1(C)CC(c2cc(Cl)c3ncc(Br)cc3c2)=NO1 (centres unmarked) , tested on Botrytis cinerea?
100

---

assay type: physicochemical; settings: HPLC on reversed phase columns, method [a]: pH 2.7, 0.1% formic acid in water / acetonitrile, linear gradient 10% to 95% acetonitrile
Items are presented alongside their recorded log P.

A selection of reference data follows.
INSERT INTO measurements (molecule, measurement_label, reported_value) VALUES
  ('COCC#CC(C)(C)NC(=O)C1(C)CC(c2ccc3ncc(Br)cc3c2)=NO1 (stereo not drawn) [compound 299]', 'log P', '3.19[a]'),
  ('C#Cc1cnc2ccc(C3=NOC(C)(C(=O)NCc4cccc(OC)n4)C3)cc2c1 (stereo not drawn) [compound 665]', 'log P', '2.77[a]'),
  ('CC(C)CC(C)NC(=O)C1(C)CC(c2ccc3ncc(Br)cc3c2)=NO1 (stereo not drawn) [compound 321]', 'log P', '3.80[a]'),
  ('C=C(C)C1(C(=O)NC(C)C)CC(c2ccc3ncc(Br)cc3c2)=NO1 (stereo not drawn) [compound 517]', 'log P', '3.41[a]'),
  ('C#Cc1cnc2ccc(C3=NOC(C)(C(=O)NC(C)CC(C)C)C3)cc2c1 (stereo not drawn) [compound 316]', 'log P', '3.37[a]'),
  ('CCn1cc(CNC(=O)C2(C)CC(c3ccc4ncc(C)cc4c3)=NO2)c(C)n1 (stereo not drawn) [compound 257]', 'log P', '1.46^[a]'),
  ('CSC1(C(=O)NC(C)C)CC(c2ccc3ncc(Br)cc3c2)=NO1 (stereo not drawn) [compound 530]', 'log P', '2.88[a]'),
  ('CCn1cc(CNC(=O)C2(C)CC(c3cc(Cl)c4ncc(Br)cc4c3)=NO2)c(C)n1 (racemic) [compound 548]', 'log P', '2.77[a]'),
  ('CC(NC(=O)C1(C)CC(c2ccc3ncc(Br)cc3c2)=NO1)c1nccs1 (stereo not drawn) [compound 310]', 'log P', '2.56[a]'),
  ('C#Cc1cnc2ccc(C3=NOC(C(=O)NCc4cn(CC)nc4C)(C(F)F)C3)cc2c1 (stereo not drawn) [compound 613]', 'log P', '2.39[a]');

Below: the item to evaluate.
Please give the measured log P for this molecule: C#Cc1cnc2ccc(C3=NOC(OC)(C(=O)NC(C)(C)c4nc(C)cs4)C3)cc2c1 (stereo not drawn) [compound 514]
2.90[a]
